Origin of measurements: the kinase profiling compilation of Christmann-Franck et al. (2016)

Measured kinase still bound, per cent of control, listed per entry.
system-name: CDC42BPG (human) (UniProt Q6DT37)
Sequence (Q6DT37 whole entry, looked up): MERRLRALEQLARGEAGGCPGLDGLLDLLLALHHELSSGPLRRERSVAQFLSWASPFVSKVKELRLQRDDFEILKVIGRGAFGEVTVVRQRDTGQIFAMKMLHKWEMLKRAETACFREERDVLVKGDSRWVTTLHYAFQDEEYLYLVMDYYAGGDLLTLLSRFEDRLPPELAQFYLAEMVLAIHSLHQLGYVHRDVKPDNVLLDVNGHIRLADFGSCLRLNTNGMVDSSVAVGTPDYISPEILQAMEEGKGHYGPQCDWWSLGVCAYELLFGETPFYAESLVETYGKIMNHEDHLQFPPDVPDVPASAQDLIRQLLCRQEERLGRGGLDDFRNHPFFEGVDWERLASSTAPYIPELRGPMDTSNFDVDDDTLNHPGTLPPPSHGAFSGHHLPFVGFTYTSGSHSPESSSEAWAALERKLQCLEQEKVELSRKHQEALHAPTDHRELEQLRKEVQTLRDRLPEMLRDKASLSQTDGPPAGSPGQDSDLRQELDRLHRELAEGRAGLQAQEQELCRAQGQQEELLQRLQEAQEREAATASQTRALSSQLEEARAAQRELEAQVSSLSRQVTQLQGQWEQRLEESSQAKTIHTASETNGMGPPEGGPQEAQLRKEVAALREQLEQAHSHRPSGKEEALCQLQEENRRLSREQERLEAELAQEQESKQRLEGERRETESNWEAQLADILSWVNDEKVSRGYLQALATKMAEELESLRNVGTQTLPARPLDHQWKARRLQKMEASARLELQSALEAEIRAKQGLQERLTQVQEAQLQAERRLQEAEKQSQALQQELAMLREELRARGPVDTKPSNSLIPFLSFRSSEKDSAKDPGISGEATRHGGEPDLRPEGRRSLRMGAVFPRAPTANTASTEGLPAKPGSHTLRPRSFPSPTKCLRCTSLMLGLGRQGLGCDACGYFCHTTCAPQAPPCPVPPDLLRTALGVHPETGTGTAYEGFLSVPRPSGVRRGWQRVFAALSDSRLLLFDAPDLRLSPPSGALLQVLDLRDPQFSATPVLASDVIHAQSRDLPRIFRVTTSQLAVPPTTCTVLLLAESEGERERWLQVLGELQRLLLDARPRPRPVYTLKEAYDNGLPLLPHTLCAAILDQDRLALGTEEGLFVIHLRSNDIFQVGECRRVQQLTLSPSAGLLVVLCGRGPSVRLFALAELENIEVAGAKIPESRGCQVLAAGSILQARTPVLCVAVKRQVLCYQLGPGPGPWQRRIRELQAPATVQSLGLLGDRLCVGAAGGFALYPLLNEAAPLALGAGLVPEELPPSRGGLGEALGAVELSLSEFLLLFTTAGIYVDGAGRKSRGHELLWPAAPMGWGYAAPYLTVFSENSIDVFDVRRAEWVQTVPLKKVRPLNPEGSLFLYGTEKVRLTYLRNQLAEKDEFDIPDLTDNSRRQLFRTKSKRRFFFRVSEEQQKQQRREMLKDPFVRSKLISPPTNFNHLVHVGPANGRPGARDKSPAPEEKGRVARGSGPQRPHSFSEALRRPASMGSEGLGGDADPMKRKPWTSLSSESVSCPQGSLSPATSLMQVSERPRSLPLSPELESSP
assay-summary: KINOMEscan competition binding
conditions-used: compound 10.0 µM

{"smiles-record": "NC(=O)Nc1cc(-c2cccc(F)c2)sc1C(=O)N[C@@H]1CCCNC1", "units-text": "%", "kinase still bound, per cent of control": 72}
{"smiles-record": "CCN1CCN(C(=O)Cc2ccc(Nc3ncc(F)c(Nc4ccc(C(=O)Nc5ccccc5Cl)cc4)n3)cc2)CC1", "units-text": "%", "kinase still bound, per cent of control": 66}
{"smiles-record": "CCN(CC)CCCCNc1ncc2cc(-c3cc(OC)cc(OC)c3)c(NC(=O)NC(C)(C)C)nc2n1", "units-text": "%", "kinase still bound, per cent of control": 100}
{"smiles-record": "CCN(CC)CCCCNc1ncc2c(n1)N(C)C(=O)N(c1c(Cl)c(OC)cc(OC)c1Cl)C2", "units-text": "%", "kinase still bound, per cent of control": 100}
{"smiles-record": "COc1ccc(N(C(=O)Oc2c(C)cccc2C)c2ccnc(Nc3ccc(N4CCN(C)CC4)cc3)n2)c(OC)c1", "units-text": "%", "kinase still bound, per cent of control": 0.45}
{"smiles-record": "O=C(Nc1cccc(Nc2ncc(Br)c(NCCc3cnc[nH]3)n2)c1)N1CCCC1", "units-text": "%", "kinase still bound, per cent of control": 49}
{"smiles-record": "C[C@@H](Oc1cc(-c2cnn(C3CCNCC3)c2)cnc1N)c1c(Cl)ccc(F)c1Cl", "units-text": "%", "kinase still bound, per cent of control": 48}
{"smiles-record": "C=CC(=O)Nc1ccc(CN(C(=O)Nc2c(Cl)c(OC)cc(OC)c2Cl)c2cc(Nc3ccc(N4CCN(C)CC4)cc3)ncn2)cc1", "units-text": "%", "kinase still bound, per cent of control": 100}
{"smiles-record": "C=CC(=O)Nc1cc(-n2c(=O)ccc3cnc4ccc(-c5cn[nH]c5)cc4c32)ccc1C", "units-text": "%", "kinase still bound, per cent of control": 100}

====

system-name: FYN (human)
assay-summary: KINOMEscan competition binding
conditions-used: compound 10.0 µM
condition met if kinase still bound, per cent of control is below 50%. condition not met if not; exact matches included in condition not met.

{"smiles-record": "C=CC(=O)Nc1cc(-n2c(=O)ccc3cnc4ccc(-c5cn[nH]c5)cc4c32)ccc1C", "system-name": "FYN (human)", "class-label": "condition not met"}
{"smiles-record": "NC(=O)Nc1cc(-c2cccc(F)c2)sc1C(=O)N[C@@H]1CCCNC1", "system-name": "FYN (human)", "class-label": "condition met"}
{"smiles-record": "C=CC(=O)Nc1ccc(CN(C(=O)Nc2c(Cl)c(OC)cc(OC)c2Cl)c2cc(Nc3ccc(N4CCN(C)CC4)cc3)ncn2)cc1", "system-name": "FYN (human)", "class-label": "condition met"}
{"smiles-record": "CCN1CCN(C(=O)Cc2ccc(Nc3ncc(F)c(Nc4ccc(C(=O)Nc5ccccc5Cl)cc4)n3)cc2)CC1", "system-name": "FYN (human)", "class-label": "condition met"}
{"smiles-record": "CS(=O)(=O)N1CCN(Cc2cc3nc(-c4cccc5[nH]ncc45)nc(N4CCOCC4)c3s2)CC1", "system-name": "FYN (human)", "class-label": "condition not met"}
{"smiles-record": "CNC(=O)c1cc(Oc2ccc(NC(=O)Nc3ccc(Cl)c(C(F)(F)F)c3)cc2)ccn1", "system-name": "FYN (human)", "class-label": "condition met"}
{"smiles-record": "COc1cc(N2CCN(C)CC2)ccc1Nc1ncc2c(n1)N(C)c1ccccc1C(=O)N2C", "system-name": "FYN (human)", "class-label": "condition not met"}
{"smiles-record": "Cc1n[nH]c2ccc(-c3cncc(OC[C@@H](N)Cc4c[nH]c5ccccc45)c3)cc12", "system-name": "FYN (human)", "class-label": "condition not met"}
{"smiles-record": "O=C1NC(=O)/C(=C/c2ccc3nccc(-c4ccncc4)c3c2)S1", "system-name": "FYN (human)", "class-label": "condition not met"}
